biological target: Gal-1 (Homo sapiens, UniProt P09382); construct: made in house; host or cells: E. coli BL21(DE3); assay: Pull-down assay with immobilized protein and LSM libraries; format: binding; conditions: H12 library; 1:1 binding assumed; read-out: Surface mapping KD (apparent)
Sequence (P09382 whole entry): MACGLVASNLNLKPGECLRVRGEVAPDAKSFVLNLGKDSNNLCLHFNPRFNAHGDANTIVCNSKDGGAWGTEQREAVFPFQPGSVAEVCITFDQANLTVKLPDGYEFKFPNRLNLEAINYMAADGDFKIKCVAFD
metric_name: pKd
Keep it numeric: pKd is minus log10 of the concentration in mol/L.

input: What does the data say about its pKd? Entry: CC[C@H](C)[C@@H](CC(=O)N[C@H]1CCC[C@@H]1C(=O)N[C@H]1CCC[C@@H]1C(=O)N[C@@H](C)CC(=O)N[C@H]1CCC[C@@H]1C(=O)N[C@H]1CCC[C@@H]1C(N)=O)NC(=O)[C@H]1CCC[C@@H]1NC(=O)[C@H]1CCC[C@@H]1N
output: 3.33

input: Next record, please: CC[C@H](C)[C@@H](CC(=O)N[C@H]1CCC[C@@H]1C(=O)N[C@H]1CCC[C@@H]1C(N)=O)NC(=O)[C@H]1CCC[C@@H]1NC(=O)[C@H]1CCC[C@@H]1NC(=O)C[C@@H](NC(=O)[C@H]1CCC[C@@H]1NC(=O)[C@H]1CCC[C@@H]1N)[C@@H](C)CC
output: 3.40

input: Next record, please: CC[C@H](C)[C@@H](CC(=O)N[C@H]1CCC[C@@H]1C(=O)N[C@H]1CCC[C@@H]1C(N)=O)NC(=O)[C@H]1CCC[C@@H]1NC(=O)[C@H]1CCC[C@@H]1NC(=O)C[C@H](C)NC(=O)[C@H]1CCC[C@@H]1NC(=O)[C@H]1CCC[C@@H]1N
output: 3.36

input: Next record, please: NC(=O)CC[C@@H](CC(=O)N[C@H]1CCC[C@@H]1C(=O)N[C@H]1CCC[C@@H]1C(N)=O)NC(=O)[C@H]1CCC[C@@H]1NC(=O)[C@H]1CCC[C@@H]1NC(=O)C[C@H](Cc1c[nH]c2ccccc12)NC(=O)[C@H]1CCC[C@@H]1NC(=O)[C@H]1CCC[C@@H]1N
output: 3.52

* * *

I'd be grateful if you could share measured Kd for these entries.
target: S100B (Homo sapiens); construct: made in house; host or cells: Escherichia coli BL21(DE3); assay: Pull-down assay with immobilized protein and LSM libraries; assay type: binding; conditions: H12 library; 1:1 binding assumed; read-out: Surface mapping KD (apparent)
Sequence (P04271 whole entry): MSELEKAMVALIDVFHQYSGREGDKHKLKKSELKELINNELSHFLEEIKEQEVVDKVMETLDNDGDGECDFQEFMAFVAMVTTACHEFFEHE
Enter your answer as a number in µM; do not include the unit.

input: What does the data say about its Kd? Entry: N=C(N)NCCC[C@@H](CC(=O)N[C@H]1CCC[C@@H]1C(=O)N[C@H]1CCC[C@@H]1C(=O)N[C@H](CC(=O)N[C@H]1CCC[C@@H]1C(=O)N[C@H]1CCC[C@@H]1C(N)=O)Cc1ccc(O)cc1)NC(=O)[C@H]1CCC[C@@H]1NC(=O)[C@H]1CCC[C@@H]1N [H12 RY]
output: 89

input: Next record, please: CC[C@H](C)[C@@H](CC(=O)N[C@H]1CCC[C@@H]1C(=O)N[C@H]1CCC[C@@H]1C(=O)N[C@@H](C)CC(=O)N[C@H]1CCC[C@@H]1C(=O)N[C@H]1CCC[C@@H]1C(N)=O)NC(=O)[C@H]1CCC[C@@H]1NC(=O)[C@H]1CCC[C@@H]1N [H12 IA]
output: 254

input: Next record, please: CC(C)C[C@@H](CC(=O)N[C@H]1CCC[C@@H]1C(=O)N[C@H]1CCC[C@@H]1C(=O)N[C@@H](CO)CC(=O)N[C@H]1CCC[C@@H]1C(=O)N[C@H]1CCC[C@@H]1C(N)=O)NC(=O)[C@H]1CCC[C@@H]1NC(=O)[C@H]1CCC[C@@H]1N [H12 LS]
output: 258

input: Next record, please: CC(C)[C@@H](CC(=O)N[C@H]1CCC[C@@H]1C(=O)N[C@H]1CCC[C@@H]1C(=O)N[C@H](CC(=O)N[C@H]1CCC[C@@H]1C(=O)N[C@H]1CCC[C@@H]1C(N)=O)Cc1c[nH]c2ccccc12)NC(=O)[C@H]1CCC[C@@H]1NC(=O)[C@H]1CCC[C@@H]1N [H12 VW]
output: 31

Values compiled from paper PMC8162404.
